Molecular target: UniProtKB P35222
Sequence (P35222 1-781): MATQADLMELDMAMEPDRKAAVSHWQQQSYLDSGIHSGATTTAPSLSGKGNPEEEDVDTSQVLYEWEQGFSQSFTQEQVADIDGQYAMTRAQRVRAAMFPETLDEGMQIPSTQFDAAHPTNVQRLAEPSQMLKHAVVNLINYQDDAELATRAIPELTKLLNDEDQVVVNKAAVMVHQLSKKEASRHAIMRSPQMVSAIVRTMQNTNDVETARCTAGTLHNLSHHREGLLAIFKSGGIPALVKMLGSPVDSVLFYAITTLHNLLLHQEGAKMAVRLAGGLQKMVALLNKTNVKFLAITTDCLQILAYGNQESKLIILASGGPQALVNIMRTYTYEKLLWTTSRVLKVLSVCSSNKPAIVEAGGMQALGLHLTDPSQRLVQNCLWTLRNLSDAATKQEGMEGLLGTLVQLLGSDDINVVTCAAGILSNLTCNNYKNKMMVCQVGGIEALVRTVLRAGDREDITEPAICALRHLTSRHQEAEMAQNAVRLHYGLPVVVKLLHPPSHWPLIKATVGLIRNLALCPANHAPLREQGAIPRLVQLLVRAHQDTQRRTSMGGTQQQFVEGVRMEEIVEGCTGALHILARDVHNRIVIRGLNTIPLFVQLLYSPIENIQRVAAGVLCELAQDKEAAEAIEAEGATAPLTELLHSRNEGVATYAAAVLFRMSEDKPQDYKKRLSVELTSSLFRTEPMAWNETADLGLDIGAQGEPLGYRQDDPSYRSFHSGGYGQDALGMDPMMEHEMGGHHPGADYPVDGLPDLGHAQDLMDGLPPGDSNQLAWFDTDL
Test: KD50 measurement using competitive fluorescence polarization (FP) with labelled TCF4
Type: binding
Details: fluorescence polarization, β-catenin; read-out: β-Cat FP KD
pKd: −log10 of the molar value. Where a SMILES comes first, the peptide text is derived from it.

{"COMPOUND": "CC[C@H](C)[C@H](NC(=O)[C@H](CC(C)C)NC(=O)[C@H](Cc1ccccc1)NC(=O)[C@H](Cc1c[nH]c2ccccc12)NC(=O)[C@@H](N)CCSC)C(=O)N[C@@H](CO)C(=O)N[C@@H](Cc1ccccc1)C(=O)N[C@@H](Cc1c[nH]c2ccccc12)C(=O)O [compound 112] (H-MWFLISFW-OH)", "pKd": "6.00 to 6.40"}
{"COMPOUND": "CC[C@H](C)[C@H](NC(=O)[C@@H](N)CC(C)C)C(=O)N[C@@H](CO)C(=O)N[C@@H](Cc1ccccc1)C(=O)N[C@@H](Cc1c[nH]c2ccccc12)C(=O)NCC(=O)O [compound 237] (H-LISFWG-OH)", "pKd": "< 4.52"}
{"COMPOUND": "CC[C@H](C)[C@H](NC(=O)[C@H](CC(C)C)NC(=O)[C@H](Cc1ccccc1)NC(=O)[C@H](Cc1c[nH]c2ccccc12)NC(=O)[C@@H](NC(=O)[C@H](CCCNC(=N)N)NC(=O)[C@H](CO)NC(=O)[C@@H](N)CCSC)C(C)C)C(=O)N[C@@H](CO)C(=O)N[C@@H](Cc1ccccc1)C(=O)N[C@@H](Cc1c[nH]c2ccccc12)C(=O)NCC(=O)O [compound 64] (H-MSRVWFLISFWG-OH)", "pKd": "5.00 to 6.00"}

----------
Molecular target: Wnt-responsive promoter (TCF/LEF)
Assay: Wnt-dependent luciferase reporter assay
Method: The luciferase reporter assay is commonly used as a tool to study gene expression at the transcriptional level. […] Luminescence was recorded to determine the peptides with the highest β-catenin-inhibiting activity. EC50 values were calculated based on the inhibition of luminescence and expressed as concentration (uM) in Table 5. Peptides were assessed for their ability to inhibit Wnt signaling. […]
pEC50: −log10 of the molar value. Where a SMILES comes first, the peptide text is derived from it.

{"COMPOUND": "CC[C@H](C)[C@H](NC(=O)[C@H](CC(C)C)NC(=O)[C@@H](NC(=O)C(C)(Cc1c[nH]c2ccccc12)NC(=O)[C@@H](N)CCSC)[C@@H](C)CC)C(=O)N[C@@H](CO)C(=O)N[C@@H](Cc1ccccc1)C(=O)N[C@@H](Cc1c[nH]c2ccccc12)C(=O)NCC(=O)O (some centres unmarked) [compound 134] (HELM PEPTIDE1{M.[CC(Cc1c[nH]c2ccccc12)(N[*:1])C(=O)[*:2]].I.L.I.S.F.W.G}$$$$V2.0)", "pEC50": "< 4.52"}
{"COMPOUND": "CCC[C@H](N)C(=O)N[C@@H](Cc1c[nH]c2ccccc12)C(=O)N[C@@H](Cc1ccccc1)C(=O)N[C@@H](CC(C)C)C(=O)N[C@H](C(=O)N[C@@H](CS)C(=O)N[C@@H](Cc1ccccc1)C(=O)N[C@@H](Cc1c[nH]c2ccccc12)C(=O)NCC(=O)O)[C@@H](C)CC [compound 141] (HELM PEPTIDE1{[Nva].W.F.L.I.C.F.W.G}$$$$V2.0)", "pEC50": "4.82 to 5.12"}
{"COMPOUND": "CC[C@H](C)[C@H](NC(=O)[C@H](CC(C)C)NC(=O)[C@@H](NC(=O)[C@H](Cc1c[nH]c2ccccc12)NC(=O)[C@@H](N)CCCNC(=N)N)[C@@H](C)CC)C(=O)N[C@@H](CS)C(=O)N[C@@H](Cc1ccccc1)C(=O)N[C@@H](Cc1c[nH]c2ccccc12)C(=O)NCC(=O)O [compound 119] (H-RWILICFWG-OH)", "pEC50": "4.82 to 5.12"}
{"COMPOUND": "CSCC[C@H](NC(=O)[C@H](CCCNC(=N)N)NC(=O)[C@H](CO)NC(=O)[C@@H](N)CCSC)C(=O)N[C@@H](Cc1c[nH]c2ccccc12)C(=O)N[C@@H](Cc1ccccc1)C(=O)N[C@@H](CC(C)C)C(=O)N[C@H](C(=O)N[C@@H](CO)C(=O)N[C@@H](Cc1ccccc1)C(=O)N[C@@H](Cc1c[nH]c2ccccc12)C(=O)NCC(=O)O)[C@@H](C)O [compound 62] (H-MSRMWFLTSFWG-OH)", "pEC50": "< 4.52"}
{"COMPOUND": "CC[C@H](C)[C@@H]1NC(=O)[C@H](CC(C)C)NC(=O)[C@H](Cc2ccc(O)cc2)NC(=O)[C@H](Cc2c[nH]c3ccccc23)NC(=O)[C@H](CCSC)NC(=O)[C@H](CCCNC(=N)N)NC(=O)[C@H](CO)NC(=O)[C@H](CCSC)NC(=O)[C@@H](N)CCCCNC(=O)[C@H](Cc2c[nH]c3ccccc23)NC(=O)[C@H](Cc2ccccc2)NC(=O)[C@H](CO)NC1=O [compound 31] (HELM PEPTIDE1{K.M.S.R.M.W.Y.L.I.S.F.W}$PEPTIDE1,PEPTIDE1,1:R3-12:R2$$$V2.0; bridges inferred)", "pEC50": "< 4.52"}

----------
Experiment: in vitro
Details: % Viability non-Wnt responsive cells
Where a SMILES comes first, the peptide text is derived from it. [ ]: non-standard residue; d: D form. The star is where a group is joined. ξ: configuration not given here. ξIle = CC[C@H](C)C(N)C(=O)O; Piv = CC(C)(C)C(=O)*

{"COMPOUND": "CC[C@H](C)C(NC(=O)[C@H](CC(C)C)NC(=O)C(NC(=O)[C@H](Cc1c[nH]c2ccccc12)NC(=O)[C@H](CCSC)NC(=O)C(C)(C)C)[C@@H](C)CC)C(=O)N[C@@H](CO)C(=O)N[C@@H](Cc1ccccc1)C(=O)N[C@@H](Cc1c[nH]c2ccccc12)C(=O)NCC(=O)O (some centres unmarked) [compound 224] (Piv-MW[ξIle]L[ξIle]SFWG-OH)", "viability / %": 95.7}
{"COMPOUND": "CC[C@H](C)[C@H]1NC(=O)[C@H](CC(C)C)NC(=O)[C@@H](Cc2ccccc2)NC(=O)[C@H](Cc2c[nH]c3ccccc23)NC(=O)[C@@H](CCSC)NC(=O)CCCCCCCCCCCNC(=O)C[C@@H](C(=O)O)NC(=O)[C@H](Cc2c[nH]c3ccccc23)NC(=O)[C@@H](C)NC(=O)[C@@H](CS)NC1=O [compound 193] (HELM PEPTIDE1{[O=C(CCCCCCCCCCCN[*:1])[*:2]].[dM].W.[dF].L.[CC[C@H](C)[C@@H](N[*:1])C(=O)[*:2]].[dC].[dA].W.D}$PEPTIDE1,PEPTIDE1,1:R1-10:R3$$$V2.0)", "viability / %": 96.6}

----------
Molecular target: β-catenin (Homo sapiens)
Experiment: KD50 measurement using competitive fluorescence polarization (FP) with labelled TCF4
Format: binding
Conditions: fluorescence polarization, β-catenin; read-out: β-Cat FP KD
Where a SMILES comes first, the peptide text is derived from it.
Listed next: entries and their corresponding Kd.
EXPERIMENTAL READOUT: Kd

{"COMPOUND": "CC[C@H](C)[C@@H]1NC(=O)[C@H](CC(C)C)NC(=O)[C@H](Cc2ccccc2)NC(=O)[C@H](Cc2c[nH]c3ccccc23)NC(=O)[C@@H](NC(C)=O)CCCCNC(=O)C[C@@H](C(=O)O)NC(=O)[C@H](Cc2c[nH]c3ccccc23)NC(=O)[C@H](C)NC(=O)[C@H](CS)NC1=O [compound 169] (HELM PEPTIDE1{[ac].K.W.F.L.I.C.A.W.D}$PEPTIDE1,PEPTIDE1,2:R3-10:R3$$$V2.0)", "RESULT": "1000 to 10000 nM"}
{"COMPOUND": "CC[C@H](C)[C@H](NC(=O)[C@H](Cc1c[nH]c2ccccc12)NC(=O)[C@@H](N)CCSC)C(=O)N[C@@H](CC(C)C)C(=O)N[C@H](C(=O)N[C@@H](CO)C(=O)NC(C)(Cc1ccccc1)C(=O)N[C@@H](Cc1c[nH]c2ccccc12)C(=O)NCC(=O)O)[C@@H](C)CC (stereo partly drawn) [compound 128] (HELM PEPTIDE1{M.W.I.L.I.S.[CC(Cc1ccccc1)(N[*:1])C(=O)[*:2]].W.G}$$$$V2.0)", "RESULT": "400 to 1000 nM"}
{"COMPOUND": "CC[C@H](C)[C@H](NC(=O)[C@H](CC(C)C)NC(=O)[C@H](Cc1ccccc1)NC(=O)[C@H](Cc1c[nH]c2ccccc12)NC(=O)[C@@H](N)CCSC)C(=O)N[C@@H](CSC)C(=O)N[C@@H](Cc1ccccc1)C(=O)N[C@@H](Cc1c[nH]c2ccccc12)C(=O)NCC(=O)O [compound 214] (H-MWFLIC(Me)FWG-OH)", "RESULT": "400 to 1000 nM"}
